Test system: HIV-1 pseudovirus CA P90A
method.summary: organism not typed
Format: cell-based
condition.description: read-out: IC50, CA P90A virus
quantity.name: pIC50
Give bare numbers, as −log10 of the molar value.

Answer with pIC50 of CCn1ncc(CC(=O)NC(Cc2ccccc2)C(=O)N(C)c2ccccc2)c1C(F)F (stereo not shown) measured for HIV-1 pseudovirus CA P90A. 5.51

###

Test system: PBMCs
method.summary: Toxicity to PBMCs, MTS assay
condition.description: calculated using the median IC50 across all three isolates
For each record, write down the corresponding Therapeutic Index (CC50/IC50).

compound	quantity.name	measured.value
CN(C(=O)C(Cc1ccccc1)NC(=O)Cc1cnn(C)c1C(F)(F)F)c1ccccc1 (stereo not shown)	Therapeutic Index (CC50/IC50)	>5.58
CCn1ncc(CC(=O)NC(Cc2ccccc2)C(=O)N(C)c2ccccc2)c1C(F)F (stereo not shown)	Therapeutic Index (CC50/IC50)	>17.0
CC(C)c1nc2c(n1CC(=O)NC(Cc1ccccc1)C(=O)N(C)c1ccccc1)CCCC2 (stereo not shown)	Therapeutic Index (CC50/IC50)	>16.9

Okay, now this compound:
Please report Therapeutic Index (CC50/IC50) for the following compound: CN(C(=O)C(Cc1ccccc1)NC(=O)Cc1cnn(C(F)F)c1)c1ccccc1 (stereo not shown) >5.84

###

Tested on: PBMCs
method.summary: Toxicity to PBMCs, MTS assay
condition.description: MTS assay, PBMCs
quantity.name: CC50 (µM)
Give bare numbers, in µM.

Please report CC50 for the following compound: Cc1[nH]c2ccccc2c1CC(=O)N[C@@H](Cc1ccccc1)C(=O)N(C)c1ccccc1 [PF-74, reference compound] 90.5

###

Tested on: HIV-1 pseudovirus CA N57A
method.summary: organism not typed
Assay type: cell-based
condition.description: read-out: IC50, CA N57A virus
quantity.name: pIC50
Answers are plain numbers, as −log10 of the molar value.

Please report pIC50 for the following molecule: CCn1ncc(CC(=O)NC(Cc2ccccc2)C(=O)N(C)c2ccccc2)c1C(F)F (stereo not shown) 5.37

###

System: HIV-1 pseudovirus CA K70A
method.summary: organism not typed
Assay type: cell-based
condition.description: read-out: IC50, CA K70A virus; single-round infection
quantity.name: pIC50
Give bare numbers, as −log10 of the molar value.

Please report pIC50 for the following compound: Cc1[nH]c2ccccc2c1CC(=O)N[C@@H](Cc1ccccc1)C(=O)N(C)c1ccccc1 [PF-74, reference compound] 6.60

###

Test system: HIV-1 pseudovirus CA Q63A
method.summary: organism not typed
Type: cell-based
condition.description: read-out: IC50, CA Q63A virus
quantity.name: pIC50
Answers are plain numbers, as −log10 of the molar value.

Please report pIC50 for the following compound: CCn1ncc(CC(=O)NC(Cc2ccccc2)C(=O)N(C)c2ccccc2)c1C(F)F (stereo not shown) 4.67

###

Test system: HIV-1 pseudovirus CA P90A
method.summary: organism not typed
Assay type: cell-based
condition.description: read-out: IC50, CA P90A virus; single-round infection
quantity.name: IC50 (nM)
Answers are plain numbers, in nM.

Please report IC50 for the following molecule: Cc1[nH]c2ccccc2c1CC(=O)N[C@@H](Cc1ccccc1)C(=O)N(C)c1ccccc1 [PF-74, reference compound] 210
